Origin of the recorded values: PubChem BioAssay AID686979

Experiment: qHTS for Inhibitors of human tyrosyl-DNA phosphodiesterase 1 (TDP1): qHTS in cells in presence of CPT; note: nearly all actives have a fitted effect of over 55% in size; note: potency is the fitted concentration of half-maximal effect
Details: chicken DT40 Tdp1-/-;hTDP1 cells + 20 nM CPT, ATP luminescence, 48 h; series mostly up to 46.2 µM
The campaign covered roughly 420,000 compounds. About 50,000 (12%) were called active. About 26% were inconclusive and are not listed. This excerpt belongs to a sample that is enriched for actives.
Observation Type: Potency

Example molecules with recorded Potency:
| Molecule | Potency |
| --- | --- |
| COC(=O)c1sc(NC(=O)c2ccc(OC)cc2OC)nc1C | inactive |
| Clc1ccc(-c2nc3ccccn3c2CN2CCSCC2)cc1 | 29.1 µM (active) |
| COc1ccc(C(=O)NC2=NCCS2)c(OC)c1 | inactive |
| COC(=O)C1=C(C)Nc2ncnn2C1c1ccco1 (stereo unspecified) | inactive |
| COc1ccc(C(=O)Nc2cccc(NC(=O)c3ccc(OC)cc3OC)n2)c(OC)c1 | 20.6 µM (active) |

In: Give the measured Potency for CC/C(=N\NC(=O)c1c(C)nc2ccccn12)c1ccc(Cl)cc1
Out: inactive

----------
Test: qHTS for Inhibitors of human tyrosyl-DNA phosphodiesterase 1 (TDP1): qHTS in cells in presence of CPT; note: nearly all actives have a fitted effect of over 55% in size
Details: chicken DT40 Tdp1-/-;hTDP1 cells + 20 nM CPT, ATP luminescence, 48 h; series mostly up to 46.2 µM
Screen size: about 420,000 compounds; about 50,000 (12%) were called active. Inconclusive results (about 26%) are left out. Calls come from the whole dose curve; as a rule, active = well fitted inhibition curve with a large enough effect; inconclusive = small, poorly fitted or top-dose-only effect; inactive = flat fitted curve, though single readings scatter. The list comes from a sample in which actives are over-represented; it also holds close analogues and randomly drawn compounds.
Just give me one of these, please: active, inactive

| Compound | Class Label |
| --- | --- |
| CCN(C(=O)C1CCCN(c2nc(-c3ccc(OC)cc3)no2)C1)c1ccc(OC)cc1 (stereo not given) | active |
| C=CCOc1ccc(/C=C/C(=O)OCC(=O)NC(C)c2ccc(F)cc2)cc1 (stereo not given) | inactive |
| COc1ccc(NC(=O)N2CCCC(c3nc(-c4ccc(F)cc4)no3)C2)cc1 (stereo not given) | inactive |

Okay, next one:
In: Test call for this compound, please: Cc1cc(S(=O)(=O)N2CCOCC2)ccc1OCC(=O)N1CCOCC1
Out: inactive

----------
Assay: qHTS for Inhibitors of human tyrosyl-DNA phosphodiesterase 1 (TDP1): qHTS in cells in presence of CPT; note: nearly all actives have a fitted effect of over 55% in size
Settings: chicken DT40 Tdp1-/-;hTDP1 cells + 20 nM CPT, ATP luminescence, 48 h; series mostly up to 46.2 µM
The whole screen tested about 420,000 compounds, of which about 50,000 (12%) were called active. Not shown: some 26% with an inconclusive outcome. The call rests on the fitted dose curve; in most records, active means well fitted inhibition curve with a large enough effect; inconclusive means small, poorly fitted or top-dose-only effect; inactive means flat fitted curve, though single readings scatter. The sample holds actives, similar compounds and a random draw of the others, so the mix is not that of the screen.
The categories you may choose from are active, inactive

Example cases with answers are listed next.
| Compound | Class Label |
| --- | --- |
| COC(=O)CCNc1ccc2c(c1)OCCO2 | inactive |
| COc1cc(OC)cc(C(=O)NNC(=O)CCOc2ccccc2OC)c1 | inactive |
| Cc1nn(C)c(Cl)c1CN1CCC(Oc2ccc(C(=O)N3CCCC3)cc2)CC1 | inactive |
| O=C(COc1ccc(Cl)cc1)Nc1ccc2c(c1)OCO2 | inactive |
| O=C(OCCN1C(=O)c2ccccc2C1=O)[C@@H]1CC(O)CN1S(=O)(=O)c1ccccc1[N+](=O)[O-] (stereo partly specified) | inactive |

In: What call does the record list for C/C(=N/NC(=O)c1ccncc1)c1ccc2c(c1)OCO2 ?
Out: inactive

In: Call for entry CCOC(=O)c1c(C)[nH]c(C(=O)OCC(=O)N2CCCC2=O)c1C :
Out: inactive
